The values you see were collected from patent US20160017016A1.

target under test: human glucagon receptor (GCGR) (human, UniProt P47871 26-477)
Sequence (P47871 26-477): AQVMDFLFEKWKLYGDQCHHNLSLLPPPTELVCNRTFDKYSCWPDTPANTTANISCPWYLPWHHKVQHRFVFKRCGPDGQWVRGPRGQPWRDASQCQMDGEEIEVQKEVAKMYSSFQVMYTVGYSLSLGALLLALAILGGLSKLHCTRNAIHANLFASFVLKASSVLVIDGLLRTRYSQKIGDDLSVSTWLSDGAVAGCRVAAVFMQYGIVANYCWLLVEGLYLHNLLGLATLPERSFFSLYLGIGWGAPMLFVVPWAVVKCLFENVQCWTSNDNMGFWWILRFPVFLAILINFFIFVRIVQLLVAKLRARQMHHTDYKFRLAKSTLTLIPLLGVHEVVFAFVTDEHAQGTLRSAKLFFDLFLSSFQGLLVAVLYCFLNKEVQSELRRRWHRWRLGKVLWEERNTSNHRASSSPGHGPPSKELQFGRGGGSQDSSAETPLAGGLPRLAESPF
test details: cell-based or functional assay
*1 amine or outer side, *2 acyl side, *3 side chain or, on linkers, in order; H or OH if unused. Primed or numbered codes have the meaning given here. Where no end group is shown, it is not given here. Side-chain parts run from the residue outwards. [ ]: non-standard residue; d: D form. The star is where a group is joined. PEG4′ = 4 PEG units (K(PEGxpalm): Lys with x PEG units and palmitoyl at epsilon N, C-terminal (PEG)4); γGlu = O=C(O)[C@H](CCC(=O)[*:2])N[*:1]; Palmitoyl = CCCCCCCCCCCCCCCC(=O)*
recorded metric: cAMP activity, Glcg EC50 nM (nM)

Use these answered entries as a reference point.
>  <binder>
HSQGTFTSDYSKYKDSRRAQDFVQWLV[PEG4′] (not fully specified (residue 14); printed as HSQGTFTSDYSKYB1DSRRAQDFVQWLVZ4) [g427]

>  <value units>
nM

>  <cAMP activity, Glcg EC50 nM>
0.002

$$$$
>  <binder>
HSQGTFTSDYSKYLDKRRAQDFVQWLV[PEG4′] (not fully specified (residue 16); printed as HSQGTFTSDYSKYLDB1RRAQDFVQWLVZ4) [g425]

>  <value units>
nM

>  <cAMP activity, Glcg EC50 nM>
0.002

$$$$
>  <binder>
HGQGTFTSDYSKYLESK([γGlu-Palmitoyl])RAQDFVQWLV[PEG4′] [g498]

>  <value units>
nM

>  <cAMP activity, Glcg EC50 nM>
2

$$$$
>  <binder>
HSQGTFTSDK([PEG4′-Palmitoyl])SKYLDSSRARDFVAWLV[PEG4′] [g971]

>  <value units>
nM

>  <cAMP activity, Glcg EC50 nM>
0.007

$$$$
>  <binder>
HSQGTFTSDYSKYLDSRAAQK([γGlu-Palmitoyl])FVQWLV[PEG4′] [g809]

>  <value units>
nM

>  <cAMP activity, Glcg EC50 nM>
0.07

$$$$
>  <binder>
HSQGTFTSDYSKYLDSRRAQDFVQWLV (C-terminal 6-aminohexanoic acid (Ahx)) [g357]

>  <value units>
nM

>  <cAMP activity, Glcg EC50 nM>
0.08

$$$$

P. HGQGTFTSDYSKYLDSXRAQDFVQWLE (K(gE-palm) at 17; C-terminal PEG4) [g516]
Q. HSQGTFTSDYSKYLDSKRAQDFVQWLEA (K(gE-palm) at 17 (printed as B); C-terminal PEG2) [g533]
R. HGQGTFTSDYSKYK([γGlu-Palmitoyl])DSRRAQDFVQWLV[PEG4′] [g514]
(Q) Sort ascending by cAMP activity, Glcg EC50 nM. When ranking, write the labels in the order the request describes.
(A) Q, R, P
(Q: 0.003 nM, R: 0.02 nM, P: 0.08 nM)
